# Test system: LHPP gene
# measurement-description: High-throughput screening of saRNAs targeting LHPP promoter: LHPP mRNA by one-step RT-qPCR in Huh7 cells
# Assay type: cell-based, human
# test-settings: 10 nM saRNA, 72 hours, relative to control (Mock)
d = 2'-deoxy (DNA); r = 2'-OH (RNA)
Exam item: assign 1 to entries whose Fold of changes in relative LHPP mRNA expression level (log2) is below 0.5 log2 and 0 to entries at or above 0.5 log2. Note that a value of exactly 0.5 log2 receives 0.

Before answering, review these 2 worked examples.
| substance | tested-on | answer-label |
| --- | --- | --- |
| RAG7-185: saRNA duplex; sense UUGUCUCAAUUUGCCUUUGTT (SEQ ID NO: 116), antisense CAAAGGCAAAUUGAGACAATT (SEQ ID NO: 280) (sugars from the 5' end r19 d2, backbone not given here) | LHPP gene | 1 |
| RAG7-175: saRNA duplex; sense UUGCCUUUGACCUUUCUUATT (SEQ ID NO: 60), antisense UAAGAAAGGUCAAAGGCAATT (SEQ ID NO: 224) (sugars from the 5' end r19 d2, backbone not given here) | LHPP gene | 1 |

Query block: Is Fold of changes in relative LHPP mRNA expression level (log2) strictly under 0.5 log2 for the entry RAG7-909: saRNA duplex; sense UUGAAAGCUCAAAGCUAUGTT (SEQ ID NO: 23), antisense CAUAGCUUUGAGCUUUCAATT (SEQ ID NO: 187) (sugars from the 5' end r19 d2, backbone not given here) ?
Result block: 0

Query block: Is Fold of changes in relative LHPP mRNA expression level (log2) strictly under 0.5 log2 for the entry RAG7-133: saRNA duplex; sense GCUCUUUGUCCGCUGAUCUTT (SEQ ID NO: 1), antisense AGAUCAGCGGACAAAGAGCTT (SEQ ID NO: 165) (sugars from the 5' end r19 d2, backbone not given here) ?
Result block: 0

Query block: Is Fold of changes in relative LHPP mRNA expression level (log2) strictly under 0.5 log2 for the entry RAG7-735: saRNA duplex; sense GGGUUUAACGCAUUGUGAUTT (SEQ ID NO: 114), antisense AUCACAAUGCGUUAAACCCTT (SEQ ID NO: 278) (sugars from the 5' end r19 d2, backbone not given here) ?
Result block: 1

Query block: Is Fold of changes in relative LHPP mRNA expression level (log2) strictly under 0.5 log2 for the entry RAG7-177: saRNA duplex; sense AUUUGCCUUUGACCUUUCUTT (SEQ ID NO: 6), antisense AGAAAGGUCAAAGGCAAAUTT (SEQ ID NO: 170) (sugars from the 5' end r19 d2, backbone not given here) ?
Result block: 0
